MEASUREMENT_TARGET: human 5-hydroxytryptamine-2C (h5-HT2C) receptor (Homo sapiens, UniProt P28335)
Construct: expressed in transfected cells; host or cells: CHO (Chinese Hamster Ovary) cells; membranes
Sequence (P28335 33-458): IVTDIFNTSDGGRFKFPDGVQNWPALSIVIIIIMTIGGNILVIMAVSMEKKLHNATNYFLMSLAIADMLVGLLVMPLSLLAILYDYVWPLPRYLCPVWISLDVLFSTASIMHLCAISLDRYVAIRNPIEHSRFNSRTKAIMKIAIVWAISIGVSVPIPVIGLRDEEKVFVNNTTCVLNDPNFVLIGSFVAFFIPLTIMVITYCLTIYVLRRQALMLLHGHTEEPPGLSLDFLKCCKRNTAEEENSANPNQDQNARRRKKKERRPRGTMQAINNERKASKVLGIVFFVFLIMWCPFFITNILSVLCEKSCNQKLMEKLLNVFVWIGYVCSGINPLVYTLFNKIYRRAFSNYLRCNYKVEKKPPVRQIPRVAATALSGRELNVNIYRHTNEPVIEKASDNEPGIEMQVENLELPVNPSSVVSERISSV
ASSAY_COMMENT: [125I]DOI binding to membranes of CHO cells expressing the human 5-HT2C receptor
CONDITION_LABEL: [125I]DOI radioligand, CHO cell membranes, room temperature 60 min; read-out: 5-HT2C Affinity Ki
List of Ki values.
API: value field is a number in nM; no unit string.

COMPOUND	MEASURED_VALUE
NCC1Cc2cccc(-c3c(Cl)cccc3Cl)c2O1 (racemic) [Example 140]	0.3

Q: Param item = Cc1cccc(C)c1-c1cc(F)cc2c1OC(CN)C2 (racemic) [Example 227] ; retrieve measured Ki.
Ans: 1.5

Q: Consider next the compound CC(C)c1cc2c(c(-c3ccccc3Cl)c1)OC(CN)C2 (racemic) in the same way.
Ans: 0.9

Q: Consider next the compound CC(C)c1cccc2c1OC(CN)C2 (single isomer, unassigned; (+)) [Example 20] in the same way.
Ans: 24

Q: Consider next the compound COc1cc2c(c(-c3ccc(F)cc3F)c1)OC(CN)C2 (racemic) in the same way.
Ans: 0.9

Q: Consider next the compound COc1cccc(-c2cc(F)cc3c2OC(CN)C3)c1 (racemic) in the same way.
Ans: 63

Q: Consider next the compound NCC1Cc2cc(F)cc(-c3ccccc3Cl)c2O1 (single isomer, unassigned; (-)) [Example 102] in the same way.
Ans: 8

Q: Consider next the compound NCC1Cc2cccc(-c3ccc(Cl)cc3Cl)c2O1 (racemic) [Example 83] in the same way.
Ans: 1

Q: Consider next the compound Cc1cccc(-c2cc(C(F)(F)F)cc3c2OC(CN)C3)c1 (racemic) in the same way.
Ans: 98

Q: Consider next the compound CNCC1Cc2cccc(-c3ccccc3Cl)c2O1 (racemic) [Example 409] in the same way.
Ans: 3

Q: Consider next the compound NCC1Cc2cc(C(F)(F)F)cc(-c3ccc(Cl)cc3)c2O1 (racemic) in the same way.
Ans: 320

Q: Consider next the compound COc1cc2c(c(C(C)(C)C)c1)OC(CN)C2 (single isomer, unassigned; (+)) [Example 116] in the same way.
Ans: 527

Q: Consider next the compound NCC1Cc2cc(F)cc(-c3cc(Cl)ccc3Cl)c2O1 (racemic) in the same way.
Ans: 1.4

Q: Consider next the compound NCC1Cc2cc(F)cc(-c3ccccc3C(F)(F)F)c2O1 (racemic) [Example 108] in the same way.
Ans: 4

Q: Consider next the compound NCC1Cc2c(cccc2-c2ccccc2)O1 (single isomer, unassigned; (+)) [Example 2] in the same way.
Ans: 16
